B1: Pistol ribozyme (parent)
chain: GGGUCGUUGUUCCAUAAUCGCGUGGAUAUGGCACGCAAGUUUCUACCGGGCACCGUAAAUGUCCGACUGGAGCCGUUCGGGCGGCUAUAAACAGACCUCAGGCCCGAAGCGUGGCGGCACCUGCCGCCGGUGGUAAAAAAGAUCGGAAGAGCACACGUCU

Variants of: B1
Procedure details: aptazyme ON/OFF ratio, guanine; higher = stronger switching; co-transcriptional cleavage with and without guanine
Here the recorded aptazyme ON/OFF ratio is given for each entry.
Experimental endpoint: aptazyme ON/OFF ratio

In [3]: df
Out[3]:
                      mutation_spec  measured
 0  U7C U8C G9U U10A U11G C12G C13A      1.19
 1               U8A U10C U11C C12A      1.08
 2       U7C U8C G9A U10G U11C C13U      1.17
 3                U7C U8G U11A C12G       1.1
 4           U7G U8A U11G C12U C13G      1.26
 5           U8C G9C U11G C12G C13U      1.09
 6                   U10C U11G C13A      1.27
 7           U7C G9A U10G U11G C12A      1.16
 8       U7C U8G G9C U10G U11A C13A       1.3
 9           U7A U8A U11C C12U C13U      1.59
10                U8A G9A U10A C13A      1.26
11                     U8G G9C U10G      1.19
12           U8C G9U U10G U11G C12U      1.12
13                         U7C C13A      1.14
14                    G9U U11C C13U      1.37
15       U7A U8A G9A U10A U11G C12G      1.16
16      U7A U8A U10A U11G C12U C13G      1.15
17       U7G U8C G9C U10G C12U C13U      1.14
18           U8A G9U U10A U11C C12G      1.09
19      U7C G9U U10A U11C C12A C13A      1.22
20      U8A G9A U10A U11C C12A C13U      1.25
21                U8G G9C U11C C13U      1.03
22                    U8C C12A C13U      1.21
23                    U8C U10C U11A      1.63
24          G9U U10C U11G C12A C13A      1.34
25      U7G G9A U10G U11A C12U C13A       1.1
26  U7G U8G G9U U10A U11G C12A C13G      1.04
27       U7A U8A G9U U11A C12G C13U      1.14
28       U7A U8A G9C U10A U11C C12A      1.13
29           U7C G9A U10G U11C C13A      1.24
30  U7A U8C G9C U10A U11C C12U C13U      1.22
31          U8G U10G U11C C12U C13G      1.14
32            U7A U8G G9U U11A C13U      1.44
33           U7C G9A U10A U11C C13G      1.04
34           U7C U8A U11G C12A C13U      1.24
35      U7A G9A U10C U11A C12A C13A       1.2
36                    U8G U10G U11A      1.26
37  U7A U8C G9A U10C U11C C12A C13G      1.09
38                U7A G9A U11A C12G      1.23
39            U7C U8C G9A U10G C12G      1.22
40          G9C U10G U11C C12G C13U      1.15
41      U7C U8A U10G U11C C12G C13G      1.14
42           U7A G9U U10A C12G C13U      1.11
43  U7C U8C G9C U10C U11G C12A C13G      1.04
44           U7C U8G U10G C12G C13G      1.14
45           U7A G9A U10A U11A C12G      1.15
46               U8A U10A C12G C13U      1.37
47       U7C U8C G9A U11G C12G C13U      1.11
48  U7C U8A G9A U10A U11A C12G C13A       1.2
49           U7A G9C U10A U11C C13G      1.06
50  U7G U8G G9U U10G U11G C12U C13G      1.12
